Values compiled from PubChem BioAssay (NCATS).

assay_procedure: Cell Viability - LYMP2-012 (AID 982);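 also: cellular ATP by luciferase luminescence where a drop means cytotoxicity; cells exposed to compound for one day before reading; nearly all actives have a fitted effect of over 55% in size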
experimental_setup: LYMP2-012 lymphoblastoid cell viability qHTS; series mostly up to 92.2 µM
Records with an inconclusive call do not appear. Activity calls are given as the source filed them. Calls follow the shape of the dose curve; as a rule, active = well fitted cell-killing curve with a large enough effect; inconclusive = small, poorly fitted or top-dose-only effect; inactive = flat fitted curve, though single readings scatter.
Hi there, use one of these labels in your reply, thanks! 1 for active, -1 for inactive

Task: Record request — test call for Cc1cc(O)c(C(C)(C)C)cc1Sc1cc(C(C)(C)C)c(O)cc1C
Output: 1

Task: Record request — test call for O=C(/C=C/c1ccc(O)c(O)c1)OC1C[C@](O)(C(=O)O)C[C@@H](O)[C@H]1O (stereo partly drawn)
Output: -1

Task: Record request — test call for CN1[C@H]2CC(OC(=O)[C@H](CO)c3ccccc3)C[C@H]1[C@H]1O[C@H]12 (stereo partly drawn)
Output: -1

Task: Record request — test call for Cc1cc(Nc2ccc(O)cc2)ccc1N
Output: 1

Task: Record request — test call for CC(=O)Nc1ccc(C(=O)CCl)cc1
Output: 1

Task: Record request — test call for c1ccc2c(c1)ccc1cc3c(ccc4ccccc43)cc12
Output: -1

Task: Record request — test call for Nc1ccc2cc3ccccc3cc2c1
Output: -1

Task: Record request — test call for CNc1ccc(O)cc1
Output: 1

Task: Record request — test call for C=C(C)c1ccccc1
Output: -1

Task: Record request — test call for C=CC(=O)OCCOCCOC(=O)C=C
Output: 1

###

// reported activity, negative = inhibition per item
assay_procedure: Stat Signaling Pathway (AID 446);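 also: ME-180 cervical cancer cells given 40 pM IL-6 alongside compound; SIE-controlled beta-lactamase reporter measured as 460/530 nm FRET emission ratio; % is scaled to controls: 0 for no effect and ±100 for the full control effect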
experimental_setup: ME-180 SIE beta-lactamase reporter, IL-6 stimulated, 5 h; at 17.2 µM (top of the series) unless noted
Results filed as inconclusive are left out.
Field format: number, assumed %, no unit text.

Guide cases for activity, negative = inhibition, answers given:
- molecule: "O=C1NCC(COCC2CC=CCC2)O1 (configuration not stated)"
  reported_value: 2.08
- molecule: "CCOP(=O)(c1ccccc1)c1nc(-c2ccc(F)cc2)oc1N1CCCCC1 (configuration not stated)"
  reported_value: 4.79
- molecule: "CCNC(=O)COn1c(SCC(=O)NCC)nc2ccccc2c1=O"
  reported_value: 8.5
- molecule: "CC1(C)CC(=O)C2=C(C1)OC(N)=C(C#N)C2C1C=CCCC1 (configuration not stated)"
  reported_value: -5.68
- molecule: "COc1ccc(CC(=O)n2c(CC#N)nc3ccccc32)cc1OC"
  reported_value: -5.7

Reported activity, negative = inhibition ( COc1ccc(-c2nn3c(C4CCCCC4)nnc3s2)cc1OC ) = 16.5

###

assay_procedure: NFAT Signaling Pathway (AID 444);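 also: carbachol stimulus at about its EC50 of 1 µM final; % is scaled to controls: 0 for no effect and ±100 for the full control effect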
experimental_setup: Jurkat NFAT-bla M1, carbachol, beta-lactamase ratio, 5 h; at 17.2 µM (top of the series) unless noted
Experimental: NCGC Assay Overview: The nuclear factor of activated T cells (NFAT) family of transcription factors has been found primarily in most immune system cells and some other non-immune cells. NFAT plays the immunomodulatory role, primarily in T-cell activation and differentiation. […] NCGC Assay Protocol Summary: The cells were prepared in RPMI 1640 medium containing 0.1% dialyzed FBS and 25 mM HEPES at 1.6 x 10^6cell/ml. […] The %Activity was determined from the ratio of 460nm/530nm. […]
Results filed as inconclusive are left out. Activity calls are given as the source filed them. Calls come from the whole dose curve; as a rule, active = well fitted curve in either direction with a large enough effect (not every such curve was filed as active); inconclusive = small, poorly fitted or top-dose-only effect, or another doubt; inactive = flat fitted curve, though single readings scatter.
Hi there, use one of these labels in your reply, thanks! yes (1) for active, no (0) for inactive

Consider the following illustrative entries.
- molecule: "C=CCNc1sc(C(=O)C2CC2)c(N)c1C#N"
  cat: "no (0)"
- molecule: "Cc1ccc(CNC(=O)c2cc3c(=O)n4ccccc4nc3n(CC3CCCO3)c2=N)cc1 (stereo not drawn)"
  cat: "no (0)"
- molecule: "Cc1c(C(Nc2ccccn2)c2ccccc2)c(=O)n(-c2ccccc2)n1C (stereo not drawn)"
  cat: "no (0)"
- molecule: "O=c1c2c3c(sc2n2cnnc2n1C1CCCCC1)CCC3"
  cat: "no (0)"
- molecule: "N#Cc1c2c(c(-c3ccccc3)[nH]c1=O)CCCC2"
  cat: "no (0)"

Task: Record request — test call for Cn1ncc2c(Nc3ccccc3Br)ncnc21
Output: no (0)

Task: Record request — test call for CCC(C(=O)Nc1ncn[nH]1)(C(F)(F)F)C(F)(F)F
Output: no (0)

Task: Record request — test call for CCOC(=O)c1c(-c2cccs2)csc1NC(=O)c1ccncc1
Output: no (0)

Task: Record request — test call for Nc1nnc(CSc2ccc(Cl)cc2)s1
Output: no (0)

Task: Record request — test call for O=C(/C=C\c1ccc(O)cc1)c1ccc(O)cc1O
Output: no (0)

Task: Record request — test call for CCOC(=O)c1cc(CC)sc1NC(=O)C1CC1
Output: no (0)

Task: Record request — test call for COC(=O)C(NC(C)=O)(Nc1ccc(Br)cc1)C(=O)OC
Output: no (0)

###

// reported activity change, negative = inhibition per item
assay_procedure: AP1 Signaling Pathway (AID 357);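 also: ME-180 reporter cells stimulated with EGF at its EC50 level; % is scaled to controls: 0 for no effect and ±100 for the full control effect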
experimental_setup: ME-180 (cervical carcinoma) AP-1-bla reporter, EGF-induced, beta-lactamase ratio, 5 h; at 17.2 µM (top of the series) unless noted
Description: NCGC Assay Overview: Activator protein-1 (AP-1), a transcription factor, plays an important role in tumor genesis by regulating genes involved in cell proliferation, differentiation, apoptosis, and angiogenesis. AP-1 activity is induced by a complex network of signaling pathways that involves extracellular signals, such as growth factors. […] Library compounds were measured for their ability to modulate positively or negatively the action of EC50 EGF on reporter gene activity. […]
Results filed as inconclusive are left out. The source made the active and inactive calls. Calls come from the whole dose curve; as a rule, active = well fitted curve in either direction with a large enough effect (not every such curve was filed as active); inconclusive = small, poorly fitted or top-dose-only effect, or another doubt; inactive = flat fitted curve, though single readings scatter.

Guide cases for activity change, negative = inhibition, answers given:
- compound: "CC(C)OC(=O)c1nn2c(C(F)(F)F)cc(-c3ccc(Br)o3)nc2c1Br"
  reported_value: "-6.76% (inactive)"
- compound: "COc1cc(-c2nn3c(COc4ccccc4)nnc3s2)cc(OC)c1OC"
  reported_value: "0.0695% (inactive)"
- compound: "CCCCOc1ccccc1C(=O)NCCCC(=O)O"
  reported_value: "-11.8% (inactive)"
- compound: "C=CCNc1nc(N2CCOCC2)c(C#N)c2c1CN(C)CC2"
  reported_value: "4.63% (inactive)"
- compound: "Cn1c(=O)[nH]c(=O)c2c1nc(N(CCO)Cc1ccccc1)n2Cc1ccccc1Cl"
  reported_value: "-1.99% (inactive)"
- compound: "O=C(CN1C2=NCCN2c2ccccc21)N1CCOCC1"
  reported_value: "5.86% (inactive)"
- compound: "COc1ccc(-c2oc3ncn4nc(Cc5ccccc5)nc4c3c2-c2ccc(OC)cc2)cc1"
  reported_value: "-0.634% (inactive)"
- compound: "CC(C)c1[nH]c(=O)c(C#N)c2c1CSC(C)(C)C2"
  reported_value: "-3.98% (inactive)"

Reported activity change, negative = inhibition ( Cc1cc(C)n(CC(=O)c2ccccc2)c(=O)c1C#N ) = 17.1% (inactive)

Reported activity change, negative = inhibition ( Oc1ccc(C=Nc2ccc3ncccc3c2)c(O)c1 ) = 26.2% (inactive)

Reported activity change, negative = inhibition ( COc1ccc(OC)c(C2/C(=C(\O)c3ccc(OC)c(Cl)c3)C(=O)C(=O)N2CCN(C)C)c1 (stereo unspecified) ) = 10.2% (inactive)

###

// reported activity change, negative = inhibition per item
assay_procedure: NFAT Signaling Pathway (AID 444);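 also: carbachol stimulus at about its EC50 of 1 µM final; % is scaled to controls: 0 for no effect and ±100 for the full control effect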
experimental_setup: Jurkat NFAT-bla M1, carbachol, beta-lactamase ratio, 5 h; at 17.2 µM (top of the series) unless noted
Inconclusive results are not listed.
Field format: number, assumed %, no unit text.

Guide cases for activity change, negative = inhibition, answers given:
- molecule: "COC(=O)c1[nH]c(C)c(/C(O)=C2\\C(=O)C(=O)N(CCN3CCOCC3)C2c2ccccc2OC)c1C (stereo not given)"
  activity change, negative = inhibition [%]: 17.3
- molecule: "CCC(=O)OC1=C2C(=Nc3c(c(=O)n(C)c(=O)n3C)C2c2ccccc2)c2ccccc21 (stereo not given)"
  activity change, negative = inhibition [%]: -4
- molecule: "CCCCc1nc(NCCNC(=O)c2ccco2)c(C#N)c2c1CSC(C)(C)C2"
  activity change, negative = inhibition [%]: 12.2
- molecule: "COCc1[nH]nc2c1C(c1cccc(OC)c1)C(C#N)=C(N)O2 (stereo not given)"
  activity change, negative = inhibition [%]: -19.7

Next, consider the following molecule.
Reported activity change, negative = inhibition ( O=C1C=C(O)CC(c2ccco2)C1 (stereo not given) ) = -7.18

###

System: TAB165
assay_procedure: qHTS profiling for inhibitors of Plasmodium falciparum proliferation (AID 504749);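 also: 0% = DMSO vehicle and full inhibition = artemisinin control; nearly all actives have a fitted effect of over 60% in size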
experimental_setup: P. falciparum in erythrocytes, SYBR Green DNA, 72 h; series mostly up to 28.7 µM
Results filed as inconclusive are left out. Activity calls are given as the source filed them. The call rests on the fitted dose curve; in most records, active means well fitted inhibition curve with a large enough effect; inconclusive means small, poorly fitted or top-dose-only effect; inactive means flat fitted curve, though single readings scatter.
Hi there, use one of these labels in your reply, thanks! active, inactive

Consider the following illustrative entries.
- compound: "OCC1O[C@@H](O[C@@H]2C(CO)OC(O)C(O)C2O)C(O)C(O)C1O (stereo partly specified)"
  cat: "inactive"
- compound: "CC1(C)SC2C(NC(=O)C(C(=O)O)c3ccccc3)C(=O)N2C1C(=O)O (stereo unspecified)"
  cat: "inactive"
- compound: "C[S+](C)CC[C@H](N)C(=O)O"
  cat: "inactive"
- compound: "O=c1[nH]c(=O)n(C2C[C@H](O)[C@@H](CO)O2)cc1C(F)(F)F (stereo partly specified)"
  cat: "inactive"
- compound: "CC(=O)NC[C@@H]1CN(c2ccc(N3CCOCC3)c(F)c2)C(=O)O1"
  cat: "inactive"

Task: Record request — test call for CCCCCCCCCCCCCCCC(=O)OC[C@H](O)[C@H]1OC[C@@H](O)[C@@H]1O
Output: inactive

Task: Record request — test call for NC(CSSCC(N)C(=O)O)C(=O)O (stereo unspecified)
Output: inactive

Task: Record request — test call for CNC1C(O)C(OC2C(N)CC(N)C(OC3OC(CN)=CCC3N)C2O)OCC1(C)O (stereo unspecified)
Output: inactive
